Target: anti-H3K9me3 antibody ab8898
Assay: peptide microarray binding signal (635 nm), min-max normalized on array (fraction of array maximum); higher = stronger binding
Conditions: peptide region: Unmod H2B variant; binder concentration: 1:10,000 dilution
Observable: peptide microarray binding signal

Record excerpt, results attached:
Binder | Observable | Observed value
YSKRSTISSREIQ [Unmod H2B variant Y S K R S T I S S R E I Q] | peptide microarray binding signal | 0.0015
KTQKKEGKKRKRT [Unmod H2B variant K T Q K K E G K K R K R T] | peptide microarray binding signal | 0.000865

# input Endpoint output: peptide microarray binding signal of GISSKAMGIMNSF [Unmod H2B variant G I S S K A M G I M N S F] . Value?
# output 0.0011

# input Request the reported peptide microarray binding signal associated with PKKGSKKAVTKAQ [Unmod H2B variant P K K G S K K A V T K A Q]
# output 0.000577

# input # lookup: peptide microarray binding signal of KRSRKESYSIYVY [Unmod H2B variant K R S R K E S Y S I Y V Y]
# output 0.000634

# input Which peptide microarray binding signal value belongs to DIFERIAGEASRL [Unmod H2B variant D I F E R I A G E A S R L] ?
# output 0.00311

# input I have this binder here, VHPDTGISSKAMG [Unmod H2B variant V H P D T G I S S K A M G] , and I need its recorded peptide microarray binding signal.
# output 0.00283

# input Which peptide microarray binding signal value is on record for APKKGSKKAVTKA [Unmod H2B variant A P K K G S K K A V T K A] ?
# output 0.000461
